target: T1, monovalent hVISTA-ECD (human VISTA extracellular domain with His tail) (human, UniProt Q9H7M9 33-193); assay: SPR, pH 7.4
T1 construct: analyte flowed over captured antibody; also called huVISTA-His
T1 sequence (Q9H7M9 other isoform, or with tags, fused parts or gaps limits assumed): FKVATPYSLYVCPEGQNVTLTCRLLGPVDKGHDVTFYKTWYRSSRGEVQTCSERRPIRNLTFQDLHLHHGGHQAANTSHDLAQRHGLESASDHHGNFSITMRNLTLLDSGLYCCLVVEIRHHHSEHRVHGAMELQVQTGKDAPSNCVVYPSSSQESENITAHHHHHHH
ENDPOINT_LABEL: kon (M⁻¹ s⁻¹)
Express it in M⁻¹ s⁻¹; write the number only.

Solved entries:
binder="P1-065329 (41F11_VH_D31E/S35Y/Y50W/S55E/A60H/Y100E/F100aG VK_A64G) (antibody, V domains shown, Kabat positions; also called P1-065329-1) VH: QVQLVESGGGLVKPGGSLRLSCAASGFTFSEYYMYWIRQAPGKGLEWVSWISNSGEPIYYHDSVKGRFTISRDNAKNSLYLQMNSLRAEDTAVYYCARDLPGWEGDLWGRGTLVTVSS VL: EIVLTQSPATLSLSPGERATLSCRASQSVSSYLAWYQQKPGQAPRLLIYDASNRATGIPARFSGSGSGTDFTLTISSLEPEDFAVYYCQQRNNWPRTFGQGTKVEIK" endpoint_label=kon measured_number=1800
binder="P1-064472 (41F11_VH_F27E) (antibody, V domains shown, Kabat positions; also called P1-064472-1) VH: QVQLVESGGGLVKPGGSLRLSCAASGETFSDYYMSWIRQAPGKGLEWVSYISNSGSPIYYADSVKGRFTISRDNAKNSLYLQMNSLRAEDTAVYYCARDLPGWYFDLWGRGTLVTVSS VL: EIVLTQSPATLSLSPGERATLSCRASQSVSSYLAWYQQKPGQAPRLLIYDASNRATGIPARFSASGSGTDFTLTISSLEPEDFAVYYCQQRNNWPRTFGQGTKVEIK" endpoint_label=kon measured_number=274000

Moving on to the next binder.
The binder listed as P1-065312 (41F11_VH_F27E VK_A64G) (antibody, V domains shown, Kabat positions; also called P1-065312-1) VH: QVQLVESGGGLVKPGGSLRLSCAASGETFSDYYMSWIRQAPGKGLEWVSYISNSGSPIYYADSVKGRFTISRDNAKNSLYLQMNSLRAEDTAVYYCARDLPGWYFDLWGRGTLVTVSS VL: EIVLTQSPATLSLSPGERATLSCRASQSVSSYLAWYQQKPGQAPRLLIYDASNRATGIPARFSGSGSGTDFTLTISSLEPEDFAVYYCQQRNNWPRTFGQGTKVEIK has a reported kon of 198000
